system: CCRF-CEM; test: NCI tumour cell line growth inhibition, 48 h
Active and inactive are the calls of the source. No stated cut-off is given here; in the data, active = GI50 up to about 1.1 µM and inactive = higher.
Can you answer with just one of these options? active, inactive

Worked examples, 8 molecules total:
Molecule	Group Label
COC1=CCC=C(C[C@@H]2NCCc3cc(OC)c(OC)cc32)C1	inactive
Cn1ccc(C(=O)NCCN(CCNC(=O)c2ccn(C)c(=O)c2O)CCNC(=O)c2cccc(=O)n2O)c(O)c1=O	inactive
O=C1CN(c2ccc(Cl)cc2)C(=O)CN1CCN1CC(=O)N(c2ccc(Cl)cc2)CC1=O	inactive
O=C(NNc1cn[nH]c(=O)n1)c1cccc2nc3ccccc3nc12	inactive
Oc1cc(-c2ccccc2)c2ccccc2n1	inactive
CC(C)=CCc1c(OC(=O)c2c(C)cc(O)cc2O)cc(CO)c(CO)c1O	inactive
CCCC(=O)NC(NC1CCCCC1)(C(=O)OCC)C(F)(F)F (stereo unspecified)	inactive
C#Cc1nc(N)c2ncn(C3OC(COS(N)(=O)=O)C(O)C3O)c2n1 (stereo unspecified)	active

Which outcome did this test record for the molecule O=C(NCCNCCO)N/N=C/c1ccccc1 ?
inactive

Which outcome did this test record for the molecule COC(=O)C1OC(Oc2cc(O)c3c(=O)cc(-c4ccc(O)cc4)oc3c2)C(O)C(O)C1O (stereo unspecified) ?
inactive

Which outcome did this test record for the molecule O=c1cccccc1NCCNc1cccccc1=O ?
inactive

Which outcome did this test record for the molecule COc1cc2ccc3c4cc(OC)c(OC(C)C)cc4cnc3c2cc1OC ?
inactive

Which outcome did this test record for the molecule CCO/C=C1\N=C(c2ccccc2Br)OC1=O ?
inactive

Which outcome did this test record for the molecule COc1cc(C(C#N)NNC(=O)c2ccccc2O)ccc1O (stereo unspecified) ?
inactive

Which outcome did this test record for the molecule Cn1ccc(C(=O)NCCN(CCNC(=O)c2ccn(C)c(=O)c2O)CCNC(=O)c2ccn(C)c(=O)c2O)c(O)c1=O ?
inactive

Which outcome did this test record for the molecule O=c1[nH]c(=O)n([C@@H]2O[C@H](CO)[C@@H](O)[C@H]2O)cc1F [5-FLUOROURIDINE] ?
active

Which outcome did this test record for the molecule O=C(NCCC1([N+](=O)[O-])CCN(C(=O)c2ccccc2)CC1)c1ccccc1 ?
inactive

Which outcome did this test record for the molecule Clc1ccc(/N=C/C=C/Nc2ccc(Cl)cn2)nc1 ?
inactive

Which outcome did this test record for the molecule CCN1CCC(O)(/C=C/c2ccccc2C)C(C(=O)/C=C/c2ccccc2C)C1 (stereo unspecified) ?
inactive

Which outcome did this test record for the molecule CCCCCCCCCC(=O)CC(=O)c1ccc(O)cc1O ?
inactive

Which outcome did this test record for the molecule CCOC(=O)NC(=O)c1cn(-c2ccc(CCOC(=O)NCCCCCCNC(=O)OCCc3ccc(-n4c(=O)[nH]cc(C(=O)NC(=O)OCC)c4=O)cc3)cc2)c(=O)[nH]c1=O ?
inactive

###

system: K562; experiment: NCI tumour cell line growth inhibition, 48 h
Calls of active or inactive are those of the source. No stated cut-off is given here; in the data, active = GI50 up to about 1.1 µM and inactive = higher.
Experimental Endpoint: GI50

Here are 2 compounds together with their reported answers.
Compound	Test Result
OCCOCn1nc(-c2ccccc2)nc1-c1cnccn1	> 100 µM (inactive)
O=C(NCCNCCO)N/N=C/c1ccccc1	> 100 µM (inactive)

The recorded GI50 for COc1ccc(NC(=O)CCc2cc(C(C)(C)C)[nH]n2)cc1 is > 100 µM (inactive)

The recorded GI50 for O=C(O)C1(CC(CCCN2CCCCC2)c2ccccc2)CCCC1 (configuration not stated) is > 100 µM (inactive)
